Just for reference, ChEMBL document CHEMBL1201862 is where these values come from.

# System: SN12C
# protocol: NCI tumour cell line growth inhibition, 48 h
Active and inactive are the calls of the source. No stated cut-off is given here; in the data, active = GI50 up to about 1.1 µM and inactive = higher.
Task for the reader: assign each of the following compounds its reported GI50.

query: # query: GI50 of entry "COc1c(C)c(C/C=C(\C)CC/C=C(\C)CCC=C(C)C)c(OC)c(OC)c1OC"
result: > 100 µM (inactive)

query: # query: GI50 of entry O=C1CCC23CC(C=CC=C12)n1c(=O)n(-c2ccccc2)c(=O)n13 (stereo not given)
result: > 100 µM (inactive)

query: # query: GI50 of entry N#C[BH2-][n+]1cn(C2CC(OP(=O)(O)OCC3OC(n4cnc5c(=O)[nH]c(N)nc54)CC3O)C(CO)O2)c2nc(N)[nH]c(=O)c21 (stereo not given)
result: > 100 µM (inactive)

query: # query: GI50 of entry CC(C)=CCC(O)[C@](C)(O)[C@H]1[C@H](O)C[C@@]2(C)[C@@H]3CCc4cc(O)c(OC5OC(CO)C(O)C(O)C5O)cc4C3(C)C(=O)C[C@]12C (stereo not given in full)
result: > 100 µM (inactive)

query: # query: GI50 of entry "COc1ccc(-c2nnc(CCCCCCCCc3nnc(-c4ccc(OC)cc4)o3)o2)cc1"
result: > 100 µM (inactive)

query: # query: GI50 of entry "COc1ccc2oc3c(C)cc4c(OC)nnc(OC)c4c3c2c1"
result: 7.76 µM (inactive)

query: # query: GI50 of entry "CCCN1C(=O)C/C(=C\C(C)=O)Nc2ccccc21"
result: > 100 µM (inactive)

query: # query: GI50 of entry CC1=Nc2c(O)nc(S)nc2NC(c2c(Cl)cccc2Cl)C1 (stereo not given)
result: 1.42 µM (inactive)

query: # query: GI50 of entry "Cc1ccc(C(=O)/C=C/c2cccc([N+](=O)[O-])c2)cc1"
result: > 56.4 µM (inactive)

query: # query: GI50 of entry "CC(CNC(=O)c1ccccc1)(CNC(=O)c1ccccc1)[N+](=O)[O-]"
result: > 100 µM (inactive)

---

# System: NCI-H460
# protocol: NCI tumour cell line growth inhibition, 48 h
Activity calls are given as the source filed them. Rule as the data show it: active = GI50 up to about 1.1 µM and inactive = higher.
I would appreciate it if you answered using one of these outcomes: T = active, F = inactive

query: # lookup: test call for C[C@@H](CO)C1=CC(C#C[Si](C)(C)C)N(C(=O)Oc2ccccc2)c2ccccc21 (some centres not stated)
result: F

query: # lookup: test call for CNc1nnnn1C1OC(CO)C(O)C1O (configuration not stated)
result: F

query: # lookup: test call for "ClC1(c2ccccc2)c2ccc(Br)cc2-c2cc(Br)ccc21"
result: F

query: # lookup: test call for "COc1cc([C@@H]2c3cc4c(cc3[C@@H](Nc3ccc(/N=C\c5ccc(C(=O)O[C@@H](C(=O)O[C@H]6C[C@@]7(O)[C@@H](OC(=O)c8ccccc8)[C@@H]8[C@]9(OC(C)=O)CO[C@@H]9C[C@H](O)[C@@]8(C)C(=O)[C@H](OC(C)=O)C(=C6C)C7(C)C)[C@@H](NC(=O)c6ccccc6)c6ccccc6)cc5)cc3)[C@H]3COC(=O)[C@H]23)OCO4)cc(OC)c1O"
result: T

query: # lookup: test call for CC1C2Cc3ccc(O)cc3C1(C)CCN2C (configuration not stated)
result: F

query: # lookup: test call for "CC(=O)c1cc(S(=O)(=O)c2ccc(O)c(C(C)=O)c2)ccc1O"
result: F

query: # lookup: test call for "c1ccc(C2=NN=C3C(c4ccccc4)=Nc4ccccc4N3C2)cc1"
result: F

query: # lookup: test call for "O=c1c2ccccc2nc(-c2ccccc2)n1NC(=S)Nc1ccc(Cl)cc1"
result: F

query: # lookup: test call for "Cc1cc(C)nc(NS(=O)(=O)c2ccc(NNC(=O)c3cccc4c(NNc5ccc(S(=O)(=O)Nc6nc(C)cc(C)n6)cc5)c5ccccc5nc34)cc2)n1"
result: F

query: # lookup: test call for "Cc1ncc([N+](=O)[O-])n1CCNC(=O)CCCn1cnc([N+](=O)[O-])n1"
result: F

query: # lookup: test call for COc1ccc(-c2c(C(C)=O)c(C)n(C3OC(COC(C)=O)C(OC(C)=O)C(OC(C)=O)C3OC(C)=O)c(=S)c2C#N)cc1 (configuration not stated)
result: F

query: # lookup: test call for CCOC(=O)N1C=NC23C(c4ccccc4)C(c4ccccc4)C12C(=O)N(C)C(=O)N3C (configuration not stated)
result: F

query: # lookup: test call for "CN1N=C(c2ccccc2)c2cc(Cl)ccc2N=C1N/N=C/c1ccc(N(C)C)cc1"
result: F

query: # lookup: test call for "COC(=O)c1ccc(Nc2nc3[nH]cnc3c(=O)[nH]2)cc1"
result: F

query: # lookup: test call for C=CC1ON(Cc2ccccc2)CCc2cc(OC)c(OC)cc21 (configuration not stated)
result: F

query: # lookup: test call for "CCOC(=O)c1ccc(-c2onc(C)c2Br)[nH]1"
result: F

query: # lookup: test call for COC1=CC(=O)c2c(cc3c(c2O)-c2c(OC)cc4cc5c(c(O)c4c2OC(=O)CC(C)(O)C3)C(=O)CC(C)(O)C5)C1=O (configuration not stated)
result: F

query: # lookup: test call for CN(C)CC(O)CNC(=O)Nc1ccccc1 (configuration not stated)
result: F

query: # lookup: test call for "COc1ccccc1C1(c2c(OC(C)C)c(=O)c2=O)SCCCS1"
result: F

query: # lookup: test call for COC(=O)C(=O)C(C#N)c1c(Cl)cccc1Cl (configuration not stated)
result: F

query: # lookup: test call for CC[C@@H]1/C=C/C=C/C[C@H](C)[C@@H](O)[C@](C)(O)C(=O)[C@H](C)[C@@H](O)[C@H](C)C(=O)[C@H](C)[C@@H](O)[C@H](C)/C=C/C(=O)O[C@H]2[C@@H](C)[C@@H](CC1)O[C@@]1(CC[C@@H](C)[C@@H](CC(C)O)O1)[C@@H]2C (some centres not stated)
result: T

query: # lookup: test call for COC1(CC[C@@H](C)COC2OC(CO)C(O)C(O)C2O)O[C@H]2C[C@H]3[C@@H]4CC=C5C[C@@H](OC6OC(CO)C(O)C(OC7OC(CO)C(O)C(O)C7O)C6OC6OC(C)C(O)C(O)C6O)CC[C@]5(C)[C@H]4CC[C@]3(C)[C@H]2[C@@H]1C (some centres not stated)
result: F

query: # lookup: test call for Cc1ccc(NC(=O)CC2C(=O)Nc3ccccc3[S+]2[O-])c(C)c1 (configuration not stated)
result: F

query: # lookup: test call for "C[C@@H]1CC[C@H]2[C@H]1[C@H]1[C@@H](CC[C@]2(C)N=C=S)C1(C)C"
result: F

query: # lookup: test call for Cc1cccc(CC(Cc2ccc(C)cc2C(=O)O)C(=O)O)c1 (configuration not stated)
result: F

query: # lookup: test call for "O=S(=O)(c1ccccc1)n1cnc(CCc2ccccc2)n1"
result: F

query: # lookup: test call for "COc1ccc2c(ccc3c(C(=O)NCCCN(C)CCCNC(=O)c4cn(C)c5c4ccc4cc(OC)ccc45)cn(C)c32)c1"
result: F

query: # lookup: test call for C=C1C(C)C2C(Cc3ccccc3)NC(=O)C23C(OC(C)=O)/C=C/C(C)(O)CC(C)C/C=C/C3C1O (configuration not stated)
result: T

query: # lookup: test call for "CC(=O)O[C@H]1C(=O)[C@@]2(C)[C@H]([C@H](OC(=O)c3ccc(F)cc3)[C@]3(O)C[C@H](OC(=O)[C@H](O)[C@@H](NC(=O)c4ccccc4)c4ccccc4)C(C)=C1C3(C)C)[C@]1(OC(C)=O)CO[C@@H]1C[C@@H]2O"
result: T

query: # lookup: test call for "COCc1cc2c(cc1/C(=C/[N+](=O)[O-])CS(=O)(=O)c1ccccc1)OCO2"
result: F

query: # lookup: test call for "CCCCOC(=O)NC(=O)c1cn(C2CCCCC2)c(=O)[nH]c1=O"
result: F

query: # lookup: test call for "CCCCCCCCCCCCOCC1(COCCCCCCCCCCCC)COC(c2ccc(N)cc2)OC1"
result: F

---

# System: U-251
# protocol: NCI tumour cell line growth inhibition, 48 h
Active and inactive are the calls of the source. No stated cut-off is given here; in the data, active = GI50 up to about 1.1 µM and inactive = higher.
reported_metric: GI50

query: # query: GI50 of entry "Cc1ccccc1NC(=O)c1cc2cc(/N=N/c3ccccc3C(=O)O)ccc2oc1=O"
result: 21.4 µM (inactive)

query: # query: GI50 of entry "O=C1/C(=C\c2cccs2)Oc2ccccc21"
result: 51.6 µM (inactive)

query: # query: GI50 of entry "Fc1ccc(/C(=N/Cc2ccccc2)N2CCOCC2)cc1"
result: > 100 µM (inactive)

query: # query: GI50 of entry "COc1cccc(NC(=O)/C(Cc2nc3ccccc3nc2C)=N/NC(=O)C[n+]2ccccc2)c1"
result: 17.7 µM (inactive)

query: # query: GI50 of entry CC(=O)OCC1C(=O)OCC1C(=O)N1Cc2cc3ccccc3nc2C1 (configuration not stated)
result: 11.3 µM (inactive)

query: # query: GI50 of entry O=C(Cc1nccc2c1[nH]c1ccccc12)OC1C#CCSCC#C/C=C\1 (configuration not stated)
result: > 100 µM (inactive)

query: # query: GI50 of entry "Cc1cc(C)c(-c2no/c(=N\S(=O)(=O)c3ccc(Cl)cc3)o2)c(C)c1"
result: > 100 µM (inactive)
